Where these numbers come from: ChEMBL document CHEMBL3856290

Molecular target: Cathepsin D (Homo sapiens, UniProt P07339)
Sequence (P07339 65-162 limits assumed): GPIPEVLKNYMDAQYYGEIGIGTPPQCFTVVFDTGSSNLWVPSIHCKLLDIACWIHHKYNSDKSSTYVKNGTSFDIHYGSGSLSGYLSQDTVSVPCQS
Sequence (P07339 169-412 limits assumed): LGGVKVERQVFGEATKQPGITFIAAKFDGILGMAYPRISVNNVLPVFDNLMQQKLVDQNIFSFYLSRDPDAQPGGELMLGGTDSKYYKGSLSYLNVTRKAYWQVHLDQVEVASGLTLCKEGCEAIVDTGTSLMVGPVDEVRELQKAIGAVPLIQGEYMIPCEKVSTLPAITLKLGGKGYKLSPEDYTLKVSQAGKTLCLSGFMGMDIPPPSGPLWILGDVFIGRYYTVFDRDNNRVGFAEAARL
Structures can show the parent of a compound that is named as a salt.
recordedMetric: IC50

Ask | Request body: readout IC50, system Cathepsin D (Homo sapiens, UniProt P07339), query COCCCCn1c(C(=O)N(CC(C)C)[C@@H]2CNC[C@H](C(=O)N3CCOCC3)C2)nc2ccccc21 [IMARIKIREN HYDROCHLORIDE] . Return the value.
Reply | > 10 µM

----------
// IC50 lookup, one value per entry
Molecular target: Renin (Homo sapiens)
Sequence (P00797 whole entry): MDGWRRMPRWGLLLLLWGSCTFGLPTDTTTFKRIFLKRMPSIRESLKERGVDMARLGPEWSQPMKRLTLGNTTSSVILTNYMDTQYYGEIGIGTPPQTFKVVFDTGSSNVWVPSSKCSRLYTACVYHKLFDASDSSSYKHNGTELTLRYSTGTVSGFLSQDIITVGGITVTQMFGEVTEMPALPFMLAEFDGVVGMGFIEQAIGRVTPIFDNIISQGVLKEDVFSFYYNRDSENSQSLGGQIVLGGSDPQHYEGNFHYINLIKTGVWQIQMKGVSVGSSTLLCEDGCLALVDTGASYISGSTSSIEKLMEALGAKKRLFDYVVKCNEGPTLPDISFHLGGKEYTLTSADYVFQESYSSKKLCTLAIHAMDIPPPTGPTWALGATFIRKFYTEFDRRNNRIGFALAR
Experiment: Inhibition of recombinant human preprorenin expressed in human 293F cells using angiotensinogen as substrate preincubated for 10 mins followed by substrate addition measured after 30 mins by ELISA
Only the number, expressed in nM, is required.

molecule | measuredNumber
COCCCNc1nc(C(C)(C)C)ncc1C(=O)N(CC(C)C)[C@@H]1CNC[C@H](C(=O)OC)C1 | 2.6

Ask | # get_value(readout='IC50', item= COC(=O)[C@@H]1CNC[C@@H](N(CC(C)C)C(=O)c2cnc(C(C)(C)C)nc2NCc2ccco2)C1 (relative stereo) )
Reply | 3.3

Ask | # get_value(readout='IC50', item= COC(=O)[C@@H]1CNC[C@H](N(CC(C)C)C(=O)c2cnc(C(C)(C)C)nc2NCc2ccco2)C1 )
Reply | 1.2

Ask | # get_value(readout='IC50', item= CC(C)CN(C(=O)c1cnc(C(C)(C)C)nc1NCc1ccco1)[C@H]1CCCNC1 )
Reply | 0.58

Ask | # get_value(readout='IC50', item= COC(=O)[C@H]1CNC[C@@H](N(CC(C)C)C(=O)c2cnc(C(C)(C)C)nc2NCc2ccco2)C1 )
Reply | 0.039

Ask | # get_value(readout='IC50', item= COCCCNc1nc(C(C)(C)C)ncc1C(=O)N(CC(C)C)[C@@H]1CNC[C@H](C(N)=O)C1 )
Reply | 1.4

Ask | # get_value(readout='IC50', item= COC(=O)[C@H]1CNC[C@@H](N(CC(C)C)C(=O)c2cnc(C(C)(C)C)nc2NCc2ccco2)C1 (racemic) )
Reply | 0.44

----------
Target: Renin (Homo sapiens)
Assay: Inhibition of renin in human plasma by radioimmunoassay
Type: cell-free
# satisfied = IC50 below 4 nM (exclusive); not satisfied = IC50 at/above 4 nM

# example entries with known answers
molecule | targetEntity | class
CC(C)CN(C(=O)c1cnc(C(C)(C)C)nc1NCc1ccco1)[C@H]1CCCNC1 | Renin (Homo sapiens) | not satisfied
COC(=O)[C@@H]1CNC[C@H](N(CC(C)C)C(=O)c2cnc(C(C)(C)C)nc2NCc2ccco2)C1 | Renin (Homo sapiens) | not satisfied
COC(=O)[C@H]1CNC[C@@H](N(CC(C)C)C(=O)c2cnc(C(C)(C)C)nc2NCc2ccco2)C1 | Renin (Homo sapiens) | satisfied

Could you now consider this next molecule?
Ask | Problem: For the molecule COC(=O)[C@@H]1CNC[C@@H](N(CC(C)C)C(=O)c2cnc(C(C)(C)C)nc2NCc2ccco2)C1 (relative stereo) , is IC50 under 4 nM?
Reply | not satisfied

----------
Assay: AUC in non-fasted rat at 1 mg/kg, po administered through cassette dosing by LC/MS/MS analysis
Format: ADME, organism-based
Conditions: in vivo
recordedMetric: AUC (ng·h/mL)
Only the number, expressed in ng·h/mL, is required.

Ask | # get_value(readout='AUC', item= CCCCCCc1nc(C(C)(C)C)ncc1C(=O)N(CC(C)C)[C@@H]1CNC[C@H](C(=O)N2CCOCC2)C1 )
Reply | 20.9
